Reference source: patent US20090304651A1

# Kd values compiled below
systemName: T1, recombinant human IGF-II (Insulin-like Growth Factor II) (human, UniProt P01344 25-91, biotinylated (Biotinyl-IGF-II, GroPep) where immobilised in SPR, site not stated; not biotinylated in ITC and as SPR analyte)
T1 construct: also called IGF2; IGF-2
T1 sequence (P01344 25-91 limits assumed): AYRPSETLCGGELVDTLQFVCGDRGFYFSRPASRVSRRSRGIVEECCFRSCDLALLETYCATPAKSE
protocolDescription: SPR, IGF-II immobilised, steady state
The reply should be a number in nM, with the unit left off.

(Q) Would you mind telling me what Kd value was observed for IGF2R domain 11 S1596A (amino acids 1511-1650, C-terminal His6 tag, from Pichia pastoris) (receptor) NEHDDCQVTNPSTGHLFDLSSLSGRAGFTAAYSEKGLVYMSICGENENCPPGVGACFGQTRISVGKANKRLRYVDQVLQLVYKDGAPCPSKSGLSYKSVISFVCRPEAGPTNRPMLISLDKQTCTLFFSWHTPLACEQATHHHHHH ?
(A) 170

(Q) Input IGF2R domain 11 S1543A (amino acids 1511-1650, C-terminal His6 tag, from Pichia pastoris) (receptor) NEHDDCQVTNPSTGHLFDLSSLSGRAGFTAAYAEKGLVYMSICGENENCPPGVGACFGQTRISVGKANKRLRYVDQVLQLVYKDGSPCPSKSGLSYKSVISFVCRPEAGPTNRPMLISLDKQTCTLFFSWHTPLACEQATHHHHHH
(A) 262
